- systemTested: T1, thyroid stimulating hormone receptor (full length human TSHR) (human, UniProt P16473 22-764)
- T1 construct: Full length TSHR coated onto plastic tubes (TSHR coated tubes, as in WO2004/050708A2); also called TSH receptor
- testDetails: competitor ^125I-K1-70 IgG, TSHR coated tubes; 3 µg/mL in assay buffer
Reported Inhibition of binding (%) by item:
Hi! Could you send only the number? It should be in %, unit omitted.

Record excerpt, results attached:
[
  {
    "binder": "K1-70 Fab (Fab, V domains shown) VH: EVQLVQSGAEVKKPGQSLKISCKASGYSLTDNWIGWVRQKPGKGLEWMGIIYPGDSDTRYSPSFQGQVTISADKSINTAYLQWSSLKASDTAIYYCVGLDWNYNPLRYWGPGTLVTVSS VL: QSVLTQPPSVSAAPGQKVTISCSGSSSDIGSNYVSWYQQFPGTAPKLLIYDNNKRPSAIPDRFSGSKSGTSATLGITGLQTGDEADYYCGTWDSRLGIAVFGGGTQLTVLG",
    "Inhibition of binding (%)": 89.4
  },
  {
    "binder": "K1-70 IgG (antibody, V domains shown, Human IgG1 lambda purified from hetero-hybridoma supernatant) VH: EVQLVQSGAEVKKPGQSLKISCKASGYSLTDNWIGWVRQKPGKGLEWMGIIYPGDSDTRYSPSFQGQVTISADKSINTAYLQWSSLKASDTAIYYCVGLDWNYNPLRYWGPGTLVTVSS VL: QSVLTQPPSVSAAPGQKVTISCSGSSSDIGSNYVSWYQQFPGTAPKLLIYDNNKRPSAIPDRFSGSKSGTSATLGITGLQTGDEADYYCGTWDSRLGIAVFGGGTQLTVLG",
    "Inhibition of binding (%)": 90.7
  }
]

Problem: State its Inhibition of binding (%) for this binder: K1-18 Fab (Fab, V domains shown) VH: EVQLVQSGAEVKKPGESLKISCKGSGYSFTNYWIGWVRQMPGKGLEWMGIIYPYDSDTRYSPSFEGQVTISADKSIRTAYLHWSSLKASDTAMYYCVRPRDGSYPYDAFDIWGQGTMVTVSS VL: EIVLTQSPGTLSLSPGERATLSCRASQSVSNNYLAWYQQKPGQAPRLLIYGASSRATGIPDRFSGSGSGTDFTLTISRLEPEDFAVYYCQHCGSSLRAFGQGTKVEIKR
Result: 79.4

Problem: State its Inhibition of binding (%) for this binder: K1-18 IgG (antibody, V domains shown, Human IgG1 kappa purified from hetero-hybridoma supernatant; it is not part of the secreted protein; also called human monoclonal TSHR autoantibody K1-18 (stimulating)) VH: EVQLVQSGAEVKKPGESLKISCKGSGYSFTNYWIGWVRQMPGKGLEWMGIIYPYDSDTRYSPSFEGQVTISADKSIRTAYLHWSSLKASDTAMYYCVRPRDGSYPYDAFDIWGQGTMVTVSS VL: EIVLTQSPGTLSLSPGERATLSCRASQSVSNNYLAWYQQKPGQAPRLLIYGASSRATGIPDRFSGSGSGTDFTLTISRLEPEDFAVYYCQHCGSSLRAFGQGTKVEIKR
Result: 90.5
